# testSystem: μ-opioid receptor (Homo sapiens (Human))
# testDescription: μ-opioid receptor functional assay (U-2 OS cells)
# Assay type: biochemical
# appliedConditions: U-2 OS cells; relative to DAMGO
recordedEndpoint: Emax (%)
Give the value, in units of %, as a plain number.

Worked examples, 6 compounds total:
# compound, testSystem, recordedEndpoint, measuredValue
measured = [
    ("COc1ccc2c(c1)[C@]13CCN(CC4CC4)[C@H](C2)[C@]12CC[C@@](NC(=O)c1ccccc1)(CO2)C3 [Compound 18]", "μ-opioid receptor (Homo sapiens (Human))", "Emax", 107),
    ("COc1ccc2c(c1)[C@]13CCN(CC4CC4)[C@H](C2)[C@]12CC[C@@](N(Cc1ccccc1)Cc1ccccc1)(CO2)C3 [Compound 7]", "μ-opioid receptor (Homo sapiens (Human))", "Emax", 84.3),
    ("CC(C)(C)C(=O)N[C@]12CC[C@@]3(OC1)[C@H]1Cc4ccc(O)cc4[C@@]3(CCN1CC1CC1)C2 [Compound 26]", "μ-opioid receptor (Homo sapiens (Human))", "Emax", 89),
    ("COc1ccc2c(c1)[C@]13CCN(CC4CC4)[C@H](C2)[C@]12CC[C@@](N(C)C)(CO2)C3 [Compound 28]", "μ-opioid receptor (Homo sapiens (Human))", "Emax", 68.7),
    ("COc1ccc2c(c1)[C@]13CCN(CC4CC4)[C@H](C2)[C@]12CC[C@@](NC(=O)CCc1ccccc1)(CO2)C3 [Compound 19]", "μ-opioid receptor (Homo sapiens (Human))", "Emax", 102),
    ("COc1ccc2c(c1)[C@]13CCN(CC4CC4)[C@H](C2)[C@]12CC[C@@](N1CCCC1)(CO2)C3 [Compound 32]", "μ-opioid receptor (Homo sapiens (Human))", "Emax", 69),
]

Next compound, Emax to be filled in.
For reference, reported Emax for COc1ccc2c(c1)[C@]13CCN(CC4CC4)[C@H](C2)[C@]12CC[C@@](NCc1ccccc1)(CO2)C3 [Compound 10] stands at 110
